B1: library; a variant is named by its letters at N, in order (parent)
chain: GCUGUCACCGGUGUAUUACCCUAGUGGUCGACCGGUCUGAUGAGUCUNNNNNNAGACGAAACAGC

variants of: B1; assay: normalized RNA/DNA level without ligand (relative to sTRSVctl = 100) (log10 (% of sTRSVctl)); ligand: hypoxanthine (xanthine aptamer); higher = less ribozyme self-cleavage, higher mRNA level; conditions: HEK293T, reporter: mCherry (pCS4076), ligand present: no
Measured normalized RNA/DNA level without ligand (log10), listed per entry.
Form field (numeric): enter value without unit.

Fill in the blank: the reported normalized RNA/DNA level without ligand (log10) of "CUGUGG" is ____.
1.45

Reported normalized RNA/DNA level without ligand (log10), variant "AAGCCC" : ____
1.9

Where these numbers come from: the supplement of paper PMC6757056
